Below, each entry is listed with its recorded i.v. CL.
Conditions: rat, in vivo, iv, 2.5 mg/kg
Report only the number, with the unit mL.min^–1.kg^–1 understood.

Problem: If you can, please state the reported i.v. CL value of CCN(CC)CC.Nc1ncnc2c1ncn2[C@@H]1O[C@H](CNS(=O)(=O)NC(=O)c2ccccc2O)[C@H](F)[C@H]1O .
Solution: 6.9

Problem: If you can, please state the reported i.v. CL value of CCN(CC)CC.Nc1ncnc2c1ncn2[C@@H]1O[C@H](CNS(=O)(=O)NC(=O)c2ccccc2O)[C@@H](F)[C@H]1F .
Solution: 0.24

Problem: If you can, please state the reported i.v. CL value of CCN(CC)CC.Nc1ncnc2c1ncn2[C@@H]1O[C@H](CNS(=O)(=O)NC(=O)c2ccccc2O)[C@@H](O)[C@@H]1F .
Solution: 2.7

----------
Conditions: rat, in vivo
Where F (relative oral bioavailability) equals or exceeds 5%, the correct label is Yes; where it does not, the label is No.

MOLECULE	CLASS LABEL
CCN(CC)CC.Nc1ncnc2c1ncn2[C@@H]1O[C@H](CNS(=O)(=O)NC(=O)c2ccccc2O)[C@@H](O)[C@H]1F [compound 12]	No
CCN(CC)CC.Nc1ncnc2c1ncn2[C@@H]1O[C@H](CNS(=O)(=O)NC(=O)c2ccccc2O)[C@@H](F)[C@H]1O [compound 15]	No
CCN(CC)CC.Nc1ncnc2c1ncn2[C@@H]1O[C@H](CNS(=O)(=O)NC(=O)c2ccccc2O)[C@@H](F)[C@H]1F [compound 17]	Yes

Problem: Does the molecule CCN(CC)CC.Nc1ncnc2c1ncn2[C@@H]1O[C@H](CNS(=O)(=O)NC(=O)c2ccccc2O)[C@H](F)[C@H]1F [compound 16] have recorded F (relative oral bioavailability) that is 5% or more?
Solution: Yes

Problem: Does the molecule CCN(CC)CC.Nc1ncnc2c1ncn2[C@@H]1O[C@H](CNS(=O)(=O)NC(=O)c2ccccc2O)[C@H](F)[C@H]1O [compound 14] have recorded F (relative oral bioavailability) that is 5% or more?
Solution: No

Problem: Does the molecule CCN(CC)CC.Nc1ncnc2c1ncn2[C@@H]1O[C@H](CNS(=O)(=O)NC(=O)c2ccccc2O)[C@@H](O)[C@@H]1F [compound 13] have recorded F (relative oral bioavailability) that is 5% or more?
Solution: No

----------
Molecular target: MbtA (Mycobacterium tuberculosis)
Sequence (P71716 whole entry): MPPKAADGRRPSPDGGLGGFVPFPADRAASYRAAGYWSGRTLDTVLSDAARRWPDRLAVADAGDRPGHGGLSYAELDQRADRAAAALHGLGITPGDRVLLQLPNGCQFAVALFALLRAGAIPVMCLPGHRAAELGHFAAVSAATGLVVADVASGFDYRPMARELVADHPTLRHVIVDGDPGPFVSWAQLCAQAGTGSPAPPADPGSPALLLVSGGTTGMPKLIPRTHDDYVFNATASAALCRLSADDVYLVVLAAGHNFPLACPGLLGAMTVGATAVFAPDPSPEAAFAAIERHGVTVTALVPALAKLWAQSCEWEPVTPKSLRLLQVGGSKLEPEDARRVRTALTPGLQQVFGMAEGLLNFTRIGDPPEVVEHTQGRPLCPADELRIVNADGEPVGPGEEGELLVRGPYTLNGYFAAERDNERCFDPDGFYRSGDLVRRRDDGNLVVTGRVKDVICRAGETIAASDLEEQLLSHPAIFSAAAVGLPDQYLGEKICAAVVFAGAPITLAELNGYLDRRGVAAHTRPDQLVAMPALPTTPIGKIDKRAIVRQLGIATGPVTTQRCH
Type: biochemical
Conditions: read-out: Ki^app; apparent Ki against MbtA; listed as C00003
MEASURED PROPERTY: pKi
Convention used: pKi is expressed as -log10 of the molar concentration.

Problem: If you can, please state the reported pKi value of CCN(CC)CC.Nc1ncnc2c1ncn2[C@@H]1O[C@H](CNS(=O)(=O)NC(=O)c2ccccc2O)[C@@H](O)[C@@H]1F .
Solution: 8.74

----------
Target: MbtA (Mycobacterium tuberculosis)
Type: biochemical
Settings: read-out: Ki^app; apparent Ki against MbtA; listed as C00001
MEASURED PROPERTY: Ki (nM)
Report only the number, with the unit nM understood.

Problem: Give recorded Ki with MbtA (Mycobacterium tuberculosis) for the following compound: CCN(CC)CC.Nc1ncnc2c1ncn2[C@@H]1O[C@H](CNS(=O)(=O)NC(=O)c2ccccc2O)[C@@H](O)[C@H]1F
Solution: 1.7

----------
Conditions: rat, in vivo, po, 25 mg/kg
Where p.o. AUC0-inf equals or exceeds 300 μg.min.mL^–1, the correct label is Condition met; where it does not, the label is Condition not met.

COMPOUND	CLASS LABEL
CCN(CC)CC.Nc1ncnc2c1ncn2[C@@H]1O[C@H](CNS(=O)(=O)NC(=O)c2ccccc2O)[C@@H](F)[C@H]1F [compound 17]	Condition met

Problem: Does the compound CCN(CC)CC.Nc1ncnc2c1ncn2[C@@H]1O[C@H](CNS(=O)(=O)NC(=O)c2ccccc2O)[C@@H](F)[C@H]1O [compound 15] have recorded p.o. AUC0-inf that is 300 μg.min.mL^–1 or more?
Solution: Condition not met

Problem: Does the compound CCN(CC)CC.Nc1ncnc2c1ncn2[C@@H]1O[C@H](CNS(=O)(=O)NC(=O)c2ccccc2O)[C@H](F)[C@H]1F [compound 16] have recorded p.o. AUC0-inf that is 300 μg.min.mL^–1 or more?
Solution: Condition met

Problem: Does the compound CCN(CC)CC.Nc1ncnc2c1ncn2[C@@H]1O[C@H](CNS(=O)(=O)NC(=O)c2ccccc2O)[C@H](F)[C@H]1O [compound 14] have recorded p.o. AUC0-inf that is 300 μg.min.mL^–1 or more?
Solution: Condition not met

Problem: Does the compound CCN(CC)CC.Nc1ncnc2c1ncn2[C@@H]1O[C@H](CNS(=O)(=O)NC(=O)c2ccccc2O)[C@@H](O)[C@@H]1F [compound 13] have recorded p.o. AUC0-inf that is 300 μg.min.mL^–1 or more?
Solution: Condition met

Problem: Does the compound CCN(CC)CC.Nc1ncnc2c1ncn2[C@@H]1O[C@H](CNS(=O)(=O)NC(=O)c2ccccc2O)[C@@H](O)[C@H]1F [compound 12] have recorded p.o. AUC0-inf that is 300 μg.min.mL^–1 or more?
Solution: Condition not met

These data points were gathered from paper PMC4674167.
